test system: ACHN; assay: Cytotoxicity against human ACHN cells; assay type: functional
// reported GI50 for each item listed
Could you give me the number in µM? Just the number is fine.

The compound CCCCCCCCC(=O)N1c2ccccc2CC1C(=O)Nc1cc(Cl)cc(Cl)c1 (stereo unspecified) showed GI50 equal to 1.89

Query CC(NC(=O)OC(C)(C)C)C(=O)N1c2ccccc2CC1C(=O)Nc1cc(Cl)cc(Cl)c1 (stereo unspecified) yields GI50 of 5.04

Please fill in: GI50 reported for CC(C)(C)C(=O)N1c2ccccc2CC1C(=O)Nc1cc(Cl)cc(Cl)c1 (stereo unspecified) = 3.68

GI50 measured on O=C(Nc1cc(Cl)cc(Cl)c1)C1Cc2ccccc2N1C(=O)c1ccccc1 (stereo unspecified) = 8.26

The compound listed as CC(C)(C)C(=O)N1c2ccccc2CC1C(=O)Nc1ccc(C(F)(F)F)cc1 (stereo unspecified) has a reported GI50 of 5.63

The compound identified as CCCCCCCCC(=O)N1c2ccccc2CC1C(=O)Nc1ccc(C(F)(F)F)cc1 (stereo unspecified) registered its GI50 at 3.78

Further cases:
Notebook: `COc1cccc2c1C(=O)c1c(O)c3c(c(O)c1C2=O)C[C@@](O)(C(=O)CO)C[C@@H]3O[C@H]1C[C@H](N)[C@H](O)[C@H](C)O1` , GI50 read as 0.182

###

system: NCI-H23; assay: Cytotoxicity against human NCI-H23 cells; assay type: functional
Field 'label' (enum: 1 / -1). Set to 1 when GI50 is strictly under 3 µM; else -1.

Lab log: compare recorded GI50 with 3 µM; is it strictly lower for CC(NC(=O)OC(C)(C)C)C(=O)N1c2ccccc2CC1C(=O)Nc1cc(Cl)cc(Cl)c1 (stereo not given) ?
-1

Please state whether GI50 is below 3 µM for CC(C)(C)OC(=O)N1c2ccccc2CC1C(=O)Nc1ccc([N+](=O)[O-])cc1 (stereo not given)
1

Decide: GI50 of CC(C)(C)OC(=O)N1c2ccccc2CC1C(=O)Nc1cc(C(F)(F)F)cc(C(F)(F)F)c1 (stereo not given) strictly below 3 µM?
1

Does the reported GI50 of CC(C)(C)OC(=O)N1c2ccccc2CC1C(=O)Nc1cccc(C(F)(F)F)c1 (stereo not given) stay below 3 µM?
-1

Given the entry Cc1ccc(S(=O)(=O)N2c3ccccc3CC2C(=O)Nc2ccc(C(F)(F)F)cc2)cc1 (stereo not given) , would its reported GI50 be below 3 µM?
-1

hey, is GI50 for CC(C)(C)OC(=O)N1c2ccccc2CC1C(=O)Nc1cc(Cl)cc(Cl)c1 (stereo not given) lower than 3 µM or not?
-1

Others:
is_below(GI50, 3 µM) for CCCCCCCCC(=O)N1c2ccccc2CC1C(=O)Nc1ccc(C(F)(F)F)cc1 (stereo not given) ?
1

Lab note: confirm whether the reported GI50 for this molecule is below 3 µM, equality not counting. molecule: CC(C)(C)C(=O)N1c2ccccc2CC1C(=O)Nc1cc(Cl)cc(Cl)c1 (stereo not given)
-1

State whether 3 µM exceeds GI50 recorded for `COc1cccc2c1C(=O)c1c(O)c3c(c(O)c1C2=O)C[C@@](O)(C(=O)CO)C[C@@H]3O[C@H]1C[C@H](N)[C@H](O)[C@H](C)O1` .
1

Hello, is GI50 of the following molecule strictly smaller than 3 µM? CC(C)(C)C(=O)N1c2ccccc2CC1C(=O)Nc1ccc(C(F)(F)F)cc1 (stereo not given)
-1

Strictly below 3 µM in GI50? CC(C)(C)OC(=O)N1c2ccccc2CC1C(=O)Nc1ccc(C(F)(F)F)cc1 (stereo not given)
-1

Determine if CCCCCCCCC(=O)N1c2ccccc2CC1C(=O)Nc1cc(Cl)cc(Cl)c1 (stereo not given) shows GI50 strictly lower than 3 µM.
1

Consider O=C(Nc1cc(C(F)(F)F)cc(C(F)(F)F)c1)C1Cc2ccccc2N1 (stereo not given) . Does its GI50 lie strictly below 3 µM?
1

Please check: GI50 for O=C(Nc1ccc(Cl)c(Cl)c1)C1Cc2ccccc2N1 (stereo not given) , strictly under 3 µM or not?
-1

Hello, I'm reviewing records and need to know if GI50 of CC(=O)N1c2ccccc2CC1C(=O)Nc1ccc(C(F)(F)F)cc1 (stereo not given) is below 3 µM. Could you check?
-1

GI50 under 3 µM? Item: O=C(Nc1cc(Cl)cc(Cl)c1)C1Cc2ccccc2N1 (stereo not given)
-1

Report whether reported GI50 is lower than 3 µM (strictly) for COc1cc2c(cc1O)CCC(C(=O)Nc1ccccc1)O2 (stereo not given)
-1

Check if GI50 falls below 3 µM for CC(=O)N1c2ccccc2CC1C(=O)Nc1cc(Cl)cc(Cl)c1 (stereo not given) .
-1

Confirm or reject: GI50 of CC(C)(C)OC(=O)N1c2ccccc2CC1C(=O)Nc1cccc(Cl)c1 (stereo not given) lies strictly below 3 µM
-1

State whether 3 µM exceeds GI50 recorded for CC(C)(C)OC(=O)N1c2ccccc2CC1C(=O)Nc1ccc(Cl)c(Cl)c1 (stereo not given) .
-1

###

system: NCI-H23; test: Cytotoxicity against human NCI-H23 cells; type: functional
In this section, each of the compounds is paired with its reported GI50.
The figure you give is taken to be in µM; do not add the unit.

The compound identified as Cc1ccc(S(=O)(=O)N2c3ccccc3CC2C(=O)Nc2cc(Cl)cc(Cl)c2)cc1 (centres undefined) registered its GI50 at 7.53

In plain terms, O=C(Nc1cccc(C(F)(F)F)c1)C1Cc2ccccc2N1 (centres undefined) has a documented GI50 of 4.96

Notebook: O=C(Nc1cc(Cl)cc(Cl)c1)C1Cc2ccccc2N1C(=O)c1ccccc1 (centres undefined) , GI50 read as 4.28

Note: attention shifts to another entry.
Entry O=C(Nc1ccc(C(F)(F)F)cc1)C1Cc2ccccc2N1C(=O)c1ccccc1 (centres undefined) — recorded GI50 = 4.58

###

tested on: MDA-MB-231; assay: Cytotoxicity against human MDA-MB-231 cells; type: functional
Metric name: GI50 (µM)
# value in µM; strip the unit string

Below, each entry is followed by its recorded GI50 result.
Recorded GI50 (compound CCCCCCCCC(=O)N1c2ccccc2CC1C(=O)Nc1cc(Cl)cc(Cl)c1 (stereo not given) ): 3.57

Documented GI50 of COc1cccc2c1C(=O)c1c(O)c3c(c(O)c1C2=O)C[C@@](O)(C(=O)CO)C[C@@H]3O[C@H]1C[C@H](N)[C@H](O)[C@H](C)O1 [DOXORUBICIN] : 0.194

// sample CC(C)(C)C(=O)N1c2ccccc2CC1C(=O)Nc1cc(Cl)cc(Cl)c1 (stereo not given) , its GI50 was 4.97

Measured GI50 of O=C(Nc1cc(Cl)cc(Cl)c1)C1Cc2ccccc2N1C(=O)c1ccccc1 (stereo not given) : 6.42

Next item in the queue.
So for CC(C)(C)C(=O)N1c2ccccc2CC1C(=O)Nc1ccc(C(F)(F)F)cc1 (stereo not given) , the logged GI50 turned out to be 7.31

###

tested on: RAW264.7; assay: Inhibition of LPS-induced NF-kappaB transcriptional activity in mouse RAW264.7 cells at 100 uM; type: cell-based
Items are presented alongside their recorded inhibition.
The figure you give is taken to be in %; do not add the unit.

Example cases with answers are listed next.
Tested system RAW264.7; inhibition recorded for COc1ccccc1NC(=O)C1Cc2ccccc2N1 (configuration not stated) was 60

Entry COc1cc(NC(=O)C2Cc3ccccc3N2)cc(OC)c1 (configuration not stated) under RAW264.7 had inhibition of 41

Kindly note: RAW264.7, COc1cc2c(cc1O)CCC(C(=O)Nc1ccccc1)O2 (configuration not stated) , inhibition value reported: 90

Observed inhibition on RAW264.7, entry O=C(Nc1cccc(O)c1)C1Cc2ccccc2N1 (configuration not stated) , equals 30

The observed inhibition for Cc1cccc(NC(=O)C2Cc3ccccc3N2C(=O)OC(C)(C)C)c1 (configuration not stated) when tested with RAW264.7 stands at 87

Others:
// compound O=C(Nc1cc(C(F)(F)F)cc(C(F)(F)F)c1)C1Cc2ccccc2N1 (configuration not stated) , assay RAW264.7, inhibition value: 96

Record for Cc1ccccc1NC(=O)C1Cc2ccccc2N1 (configuration not stated) under target or system RAW264.7: inhibition reported as 39

Readout inhibition for Cc1ccc(NC(=O)C2Cc3ccccc3N2C(=O)OC(C)(C)C)cc1C (configuration not stated) , test system RAW264.7, was 64

Observed inhibition on RAW264.7, entry O=C(Nc1ccc(O)cc1)C1Cc2ccccc2N1 (configuration not stated) , equals 63

Value (inhibition, RAW264.7) for record O=C(Nc1ccc(Cl)c(Cl)c1)C1Cc2ccccc2N1 (configuration not stated) = 72

Tested on RAW264.7, the item O=C(Nc1cc(Cl)ccc1Cl)C1Cc2ccccc2N1 (configuration not stated) showed inhibition equal to 34

# CC(C)(C)OC(=O)N1c2ccccc2CC1C(=O)Nc1cccc(O)c1 (configuration not stated) with RAW264.7: inhibition is 75
